Source of measurements: patent US20160083391A1

Catalogue of compounds with associated IC50
tested on: PDE1; assay: In vitro HTRF PDE1 inhibition assay; assay type: biochemical; settings: HTRF cGMP assay, 100 nM cyclic GMP, PDE (1A3, 1B or 1C) with calmodulin, 45 minutes at 37° C.; isoform of the tabulated values not stated

Sample records with IC50:
compound	study_system	IC50
CC1NCCn2c1nc1c(cnn1C(C)C)c2=O (racemic)	PDE1	> 10000 nM
COc1cccc(N2CCn3c(nn4c(C(C)C)ncc4c3=O)C2)c1	PDE1	< 1000 nM

## Input Could you tell me which IC50 is on file for CC(C)c1ncc2c(=O)n3c(nn12)CN(c1ccc(Cl)cc1)CC3 ?
## Output < 1000 nM

====

Catalogue of molecules with associated IC50
tested on: PDE1; experiment: In vitro HTRF PDE1 inhibition assay; assay type: biochemical; conditions: HTRF cGMP assay, 100 nM cyclic GMP, PDE (1A3, 1B or 1C) with calmodulin, 45 minutes at 37° C.; isoform of the tabulated values not stated

Sample records with IC50:
molecule	IC50
CC(C)c1nnc2c(=O)n3c(nn12)CN(CCc1ccccc1)CC3	1 to 10 µM
CN1CCn2c(nc3[nH]nc(Nc4ccccc4)c3c2=O)C1	> 10 µM
COc1ccc(CCN2CCn3c(nn4c(C5CCCC5)ncc4c3=O)C2)cc1	1 to 10 µM

## Input Could you tell me which IC50 is on file for O=c1c2onc(C3CCCC3)c2nc2n1CCN(Cc1ccc(Cl)cc1)C2 ?
## Output 1 to 10 µM

## Input Could you tell me which IC50 is on file for CC(C)n1ncc2c(=O)n3c(nc21)C(c1ccccc1)N(C)CC3 (racemic) ?
## Output > 10 µM

====

tested on: PDE1; experiment: In vitro HTRF PDE1 inhibition assay; type: biochemical; details: HTRF cGMP assay, 100 nM cyclic GMP, PDE (1A3, 1B or 1C) with calmodulin, 45 minutes at 37° C.; isoform of the tabulated values not stated
pIC50: −log10 of the molar value.
measured_metric: pIC50

Sample records with pIC50:
O=c1c2c(Nc3ccccc3)n[nH]c2nc2n1CCN(Cc1ccccc1)C2 < 5.00
Cc1cnc(CN2CCn3c(nc4c(cnn4C4CCCC4)c3=O)C2)nc1 5.00 to 6.00
COc1ccc(CN2CCn3c(nc4c(cnn4C4CCOCC4)c3=O)C2)cc1 5.00 to 6.00

Please turn your attention to the following entry.
## Input Request - read-out pIC50 | tested on PDE1 | molecule CC(C)(C)n1ncc2c(=O)n3c(nc21)CN(c1ccc(Cl)cc1)CC3
## Output 5.00 to 6.00

====

tested on: PDE1; test: In vitro HTRF PDE1 inhibition assay; type: biochemical; settings: HTRF cGMP assay, 100 nM cyclic GMP, PDE (1A3, 1B or 1C) with calmodulin, 45 minutes at 37° C.; isoform of the tabulated values not stated
Catalogue of molecules with associated IC50

Sample records with IC50:
molecule	reading
CN1CCn2c(nc3c(cnn3-c3ccccc3)c2=O)C1Cc1ccccc1 (racemic)	> 10 µM
COc1ccc(CN2CCn3c(nc4c(nnn4C4CCCC4)c3=O)C2)cc1	> 10 µM
CC(C)c1ncc2c(=O)n3c(nn12)CN(c1ccc(Cl)cn1)CC3	< 1 µM

Please turn your attention to the following entry.
## Input Could you tell me which IC50 is on file for CC1c2nc3c(cnn3C)c(=O)n2CCN1Cc1ccccc1 (racemic) ?
## Output > 10 µM

====

Catalogue of molecules with associated pIC50
tested on: PDE1; assay: In vitro HTRF PDE1 inhibition assay; type: biochemical; settings: HTRF cGMP assay, 100 nM cyclic GMP, PDE (1A3, 1B or 1C) with calmodulin, 45 minutes at 37° C.; isoform of the tabulated values not stated
pIC50: −log10 of the molar value.

Sample records with pIC50:
molecule	pIC50
O=c1c2cn[nH]c2nc2n1CCN(Cc1ccccc1)C2	< 5.00
COc1ccc(CN2CCn3c(nn4c(C(C)C)nnc4c3=O)C2)cc1	5.00 to 6.00

## Input Could you tell me which pIC50 is on file for O=c1c2cnn(C3CC3)c2nc2n1CCN(Cc1ccccc1)C2 ?
## Output < 5.00

## Input Could you tell me which pIC50 is on file for O=c1c2cnc(C3CCOC3)n2nc2n1CCN(Cc1ccc(Cl)cc1)C2 (racemic) ?
## Output 5.00 to 6.00

## Input Could you tell me which pIC50 is on file for CC(C)Cn1ncc2c(=O)n3c(nc21)CN(c1ccc(Cl)cc1)CC3 ?
## Output > 6.00

## Input Could you tell me which pIC50 is on file for CC(C)Cn1ncc2c(=O)n3c(nc21)CN(c1cccc(Cl)c1)CC3 ?
## Output > 6.00

## Input Could you tell me which pIC50 is on file for CC(C)n1ncc2c(=O)n3c(nc21)CN(c1ccc(C#N)cc1)CC3 ?
## Output > 6.00

====

test system: PDE1; assay: In vitro HTRF PDE1 inhibition assay; assay type: biochemical; settings: HTRF cGMP assay, 100 nM cyclic GMP, PDE (1A3, 1B or 1C) with calmodulin, 45 minutes at 37° C.; isoform of the tabulated values not stated
pIC50: −log10 of the molar value.
measured_metric: pIC50

molecule	pIC50
O=c1c2cnn(C3CCCC3)c2nc2n1CCN(Cc1cnccn1)C2	5.00 to 6.00
COc1ccc(CN2CCn3c(nc4c(ncn4C4CCCC4)c3=O)C2)cc1	< 5.00
CC1CN(Cc2ccc(Cl)cc2)Cc2nc3c(cnn3C3CCCC3)c(=O)n21 (racemic)	5.00 to 6.00
CN1CCn2c(nc3c(cnn3-c3ccccc3)c2=O)C1	< 5.00
CC1c2nc3c(cnn3C3CCCC3)c(=O)n2CCN1Cc1ccc(Cl)cc1 (racemic)	5.00 to 6.00

## Input Could you tell me which pIC50 is on file for COc1ccc(CN2CCn3c(nc4c(cnn4CC(C)C)c3=O)C2)cc1 ?
## Output > 6.00

## Input Could you tell me which pIC50 is on file for CC(C)c1nn(C)c2c(=O)n3c(nc12)C(C)N(Cc1ccccc1)CC3 (racemic) ?
## Output < 5.00

## Input Could you tell me which pIC50 is on file for CC(C)n1ncc2c(=O)n3c(nc21)CN(Cc1cccc(F)c1)CC3 ?
## Output 5.00 to 6.00

====

Catalogue of compounds with associated IC50
system: PDE1; assay: In vitro HTRF PDE1 inhibition assay; assay type: biochemical; details: HTRF cGMP assay, 100 nM cyclic GMP, PDE (1A3, 1B or 1C) with calmodulin, 45 minutes at 37° C.; isoform of the tabulated values not stated

Sample records with IC50:
compound	reading
CC(C)n1ncc2c(=O)n3c(nc21)CNCC3	> 10000 nM
COc1cncc(N2CCn3c(nc4c(cnn4C(C)C)c3=O)C2)c1	< 1000 nM
CC(C)n1ncc2c(=O)n3c(nc21)CN(Cc1cccc(-c2ccccc2)c1)CC3	< 1000 nM
CC(C)n1ncc2c(=O)n3c(nc21)C(Cc1ccccc1)N(C)CC3 (racemic)	> 10000 nM
COc1ccc(CN2CCn3c(nn4c(C(C)C)ncc4c3=O)C2)cc1	< 1000 nM
CC(C)CC1Cn2c(nc3c(cnn3C(C)C)c2=O)CN1c1ccc(Cl)cc1 (racemic)	< 1000 nM
O=c1c2cn[nH]c2nc2n1CCNC2Cc1ccccc1 (racemic)	> 10000 nM
CC(c1ccc(Cl)cc1)N1CCn2c(nc3c(cnn3C3CCCC3)c2=O)C1 (racemic)	1000 to 10000 nM

Please turn your attention to the following entry.
## Input Could you tell me which IC50 is on file for CC(C)n1ncc2c(=O)n3c(nc21)CN(c1ccncc1)CC3 ?
## Output < 1000 nM

====

tested on: PDE1; experiment: In vitro HTRF PDE1 inhibition assay; format: biochemical; details: HTRF cGMP assay, 100 nM cyclic GMP, PDE (1A3, 1B or 1C) with calmodulin, 45 minutes at 37° C.; isoform of the tabulated values not stated
pIC50: −log10 of the molar value.
measured_metric: pIC50

Sample records with pIC50:
compound	study_system	pIC50
CC(C)CN1CCn2c(nc3c(cnn3C(C)C)c2=O)C1	PDE1	< 5.00
COc1ccc(CN2CCn3c(nc4c(C5CCCC5)n[nH]c4c3=O)C2)cc1	PDE1	< 5.00
CC(C)n1ncc2c(=O)n3c(nc21)CN(Cc1ccccc1Cl)CC3	PDE1	> 6.00
CC(C)n1ncc2c(=O)n3c(nc21)CNC(Cc1ccccc1)C3 (racemic)	PDE1	< 5.00
CC(C)c1n[nH]c2c(=O)n3c(nc12)C(C)NCC3 (racemic)	PDE1	< 5.00
COc1cc(N2Cc3nc4c(cnn4C(C)C)c(=O)n3CC2C)ccc1F (racemic)	PDE1	> 6.00
COc1ccc(CN2CCn3c(nn4c(C5CCCC5)ncc4c3=O)C2)cc1	PDE1	> 6.00

Please turn your attention to the following entry.
## Input Could you tell me which pIC50 is on file for CC(C)n1ncc2c(=O)n3c(nc21)CN(Cc1ccc(Cl)c(Cl)c1)CC3 ?
## Output > 6.00
